Provenance of the data: the supplement of paper PMC8882468

# Tested on: HCI-010 (organoid from a breast cancer xenograft)
# TEST DESCRIPTION: CTG-3D luminescence at 96 h relative to day-0 seeding control (ratio to day 0); higher = more growth / less cytotoxicity; PDxO 3D drug screen, 96 h, CTG-3D normalised to day-0 seeding control.
# CONDITION: 1 µM; days in culture: 103
CTG-3D luminescence at 96 h vs 2: at or above is met, below is not met.

// below: answered molecules
MOLECULE: Nc1ccn([C@@H]2O[C@H](CO)[C@@H](O)C2(F)F)c(=O)n1 [gemcitabine]
CATEGORY LABEL: not met

MOLECULE: Cc1cc(Nc2ncc(Cl)c(Nc3ccccc3S(=O)(=O)C(C)C)n2)c(OC(C)C)cc1C1CCNCC1 [ceritinib]
CATEGORY LABEL: met

MOLECULE: COc1cc2c(Oc3ccc4[nH]c(C)cc4c3F)ncnc2cc1OCCCN1CCCC1 [cediranib]
CATEGORY LABEL: met

MOLECULE: C[C@H](NC(=O)CCC(F)(F)F)C(=O)N[C@@H]1C(=O)N(CCO)c2ncccc2-c2ccccc21 [crenigacestat]
CATEGORY LABEL: met

MOLECULE: Cc1nc(-c2cn3c(n2)-c2ccc(-c4cnn(C(C)(C)C(N)=O)c4)cc2OCC3)n(C(C)C)n1 [taselisib]
CATEGORY LABEL: met

MOLECULE: C[C@]12CC[C@@H]3c4ccc(O)cc4C[C@@H](CCCCCCCCC[S+]([O-])CCCC(F)(F)C(F)(F)F)[C@H]3[C@@H]1CC[C@@H]2O (stereo partly drawn) [fulvestrant]
CATEGORY LABEL: met

Problem: Hi team, for NC(=O)Nc1cc(-c2cccc(F)c2)sc1C(=O)N[C@H]1CCCNC1 [AZD7762] , is the recorded CTG-3D luminescence at 96 h at or above 2?
Result: not met

Problem: Reported CTG-3D luminescence at 96 h reaches at least 2 for CNC(=O)c1cccc(-c2ccc3c(N4CCOC[C@@H]4C)nc(N4CCOC[C@@H]4C)nc3n2)c1 [vistusertib] ?
Result: not met

Problem: Is the recorded value of CTG-3D luminescence at 96 h equal to or greater than 2 for this molecule? CCc1c2c(nc3ccc(O)cc13)-c1cc3c(c(=O)n1C2)COC(=O)[C@]3(O)CC [SN-38]
Result: not met

Problem: // inclusive: CTG-3D luminescence at 96 h at least 2? input: NC(=O)c1cccc2cn(-c3ccc([C@@H]4CCCNC4)cc3)nc12 [niraparib]
Result: met

Problem: Would you say C[C@@H]1COCCN1c1cc(C2([S@](C)(=N)=O)CC2)nc(-c2cc[nH]c3nccc2-3)n1 [ceralasertib] shows CTG-3D luminescence at 96 h at minimum 2?
Result: not met

Problem: Answer whether CTG-3D luminescence at 96 h of CS(=O)(=O)c1ccc(C(=O)Nc2ccc(Cl)c(-c3ccccn3)c2)c(Cl)c1 [vismodegib] is greater than or equal to 2.
Result: met

Problem: Evaluate COc1cccc2c1C(=O)c1c(O)c3c(c(O)c1C2=O)C[C@@](O)(C(=O)CO)C[C@@H]3O[C@H]1C[C@H](N)[C@H](O)[C@H](C)O1 [doxorubicin] : CTG-3D luminescence at 96 h at minimum 2?
Result: not met
